Please find below pIC50 measurements for Aminopeptidase N (Sus scrofa), combined from several publications.
- target_of_assay: Aminopeptidase N (Sus scrofa)
- Sequence (P15145 whole entry): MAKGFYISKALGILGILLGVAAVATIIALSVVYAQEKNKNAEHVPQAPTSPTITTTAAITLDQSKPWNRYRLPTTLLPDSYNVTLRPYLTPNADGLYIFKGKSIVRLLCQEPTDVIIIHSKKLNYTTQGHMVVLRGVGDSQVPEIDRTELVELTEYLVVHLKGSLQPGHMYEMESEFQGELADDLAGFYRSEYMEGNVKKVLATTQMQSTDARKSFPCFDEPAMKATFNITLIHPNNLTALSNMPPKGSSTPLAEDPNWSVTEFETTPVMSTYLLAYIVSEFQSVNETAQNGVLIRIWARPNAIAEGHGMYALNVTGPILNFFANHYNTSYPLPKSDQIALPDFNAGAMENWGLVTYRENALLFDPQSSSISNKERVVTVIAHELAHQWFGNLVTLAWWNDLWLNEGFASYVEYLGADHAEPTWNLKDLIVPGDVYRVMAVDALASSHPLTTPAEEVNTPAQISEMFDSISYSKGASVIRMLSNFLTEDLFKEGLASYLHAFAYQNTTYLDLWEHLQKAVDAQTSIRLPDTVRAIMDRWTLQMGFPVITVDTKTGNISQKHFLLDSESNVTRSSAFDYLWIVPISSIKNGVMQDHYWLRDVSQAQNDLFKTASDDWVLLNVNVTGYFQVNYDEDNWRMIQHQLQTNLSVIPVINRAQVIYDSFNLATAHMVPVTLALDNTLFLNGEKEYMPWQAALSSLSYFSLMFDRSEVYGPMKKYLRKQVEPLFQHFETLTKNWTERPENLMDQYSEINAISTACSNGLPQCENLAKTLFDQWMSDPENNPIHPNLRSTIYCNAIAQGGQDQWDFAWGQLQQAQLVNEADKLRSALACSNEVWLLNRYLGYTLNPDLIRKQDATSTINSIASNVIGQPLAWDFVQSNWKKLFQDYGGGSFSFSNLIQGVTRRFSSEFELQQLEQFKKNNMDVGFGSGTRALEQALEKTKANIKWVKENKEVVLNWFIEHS
pIC50: −log10 of the molar value.

// known answers, use as guide
[
  {
    "molecule": "COC(=O)[C@@H](NC(=O)CC(=O)[C@@H](Cc1ccccc1)NC(=O)OC(C)(C)C)c1ccccc1",
    "reported_endpoint": "pIC50",
    "assay_value": "< 3.00"
  },
  {
    "molecule": "Cc1[nH]cnc1/C=N/NC(N)=S",
    "reported_endpoint": "pIC50",
    "assay_value": "< 3.00"
  },
  {
    "molecule": "CC[C@@H](C)[C@H](NC(=O)N[C@@H](CCCCNC(=O)OCc1ccccc1)C(=O)O)C(=O)O",
    "reported_endpoint": "pIC50",
    "assay_value": "< 4.30"
  }
]

The molecule listed as CCOC(=O)C1=C(Nc2ccccc2)CC(c2ccc(Br)cc2)N(c2ccccc2)C1c1cccs1 (centres undefined) shows pIC50 equal to < 4.00

Consider "CC(C)C[C@H](NC(=O)Cc1ccccc1)C(=O)NO" . Its measured pIC50 is < 5.00

Notebook: "C[C@H](NC(=O)N[C@@H](CCCCNC(=O)OCc1ccccc1)C(=O)O)C(=O)O" , pIC50 read as < 4.30

For record "CC[C@@H](C)[C@H](NC(=O)N[C@@H](CCCCNC(=O)OCc1ccccc1)C(=O)NO)C(=O)NO" the listed pIC50 is < 4.30

Entry "NC(=S)NNC(=O)c1ccccc1C(=O)O" — recorded pIC50 = < 3.00

Form: molecule = "COC(=O)[C@H](CCCCNC(=O)OCc1ccccc1)NC(=O)N[C@@H](CCSC)C(=O)OC" ; pIC50 = < 4.30
